Origin of the recorded values: patent US12247004B2

Consider the following compounds and their measured pIC50 readings.
molecular target: Leucyl-tRNA synthetase (LeuRS) (Escherichia coli (strain K12)); test: Leucyl-tRNA synthetase enzyme inhibition (AMP-Glo; single point % inhibition at 100 μM and IC50); type: biochemical
The scale used: pIC50 is minus the common logarithm of the concentration in molar units.

{"columns": ["compound", "pIC50"],
 "data": [
  ["CC(C)C[C@H](N)C(=O)N=[S@](N)(=O)c1cccc(Oc2ccccc2)c1 [ANASIA-114-1]", 7.21]
]}

IN: Note down pIC50 recorded for CC(C)C[C@H](N)C(=O)N=[S@](N)(=O)c1csc2cccnc12.Cl [ANASIA-131-1]
OUT: 6.28

IN: Note down pIC50 recorded for C=Cc1ccc([S@@](N)(=O)=NC(=O)[C@@H](N)CC(C)C)s1 [ANASIA-105-1]
OUT: 6.31

IN: Note down pIC50 recorded for CC(C)C[C@H](N)C(=O)N=S(N)(=O)c1csc(Cl)c1 (mixture of isomers) [ANASIA-099]
OUT: 7.14

IN: Note down pIC50 recorded for CC(C)C[C@H](N)C(=O)N=[S@](N)(=O)c1cc(-c2ccccc2)cs1 [ANASIA-067-1]
OUT: 5.72

IN: Note down pIC50 recorded for CN[S@@](=O)(=NC(=O)[C@@H](N)CC(C)C)c1ccccc1 [ANASIA-010-1]
OUT: 5.04

IN: Note down pIC50 recorded for COc1ccsc1[S@@](N)(=O)=NC(=O)[C@@H](N)CC(C)C.Cl [ANASIA-108-1]
OUT: 6.90

IN: Note down pIC50 recorded for CC(C)C[C@H](N)C(=O)N=[S@](N)(=O)c1cccc(C#N)c1.Cl [ANASIA-041-1]
OUT: 7.75

IN: Note down pIC50 recorded for CC(C)C[C@H](N)C(=O)N=[S@](N)(=O)c1ccc2c(c1)OCO2.Cl [ANASIA-101-1]
OUT: 5.78

IN: Note down pIC50 recorded for CC(C)C[C@H](N)C(=O)N=[S@](N)(=O)c1cccc(C(C)(C)C)c1 [ANASIA-049-1]
OUT: 6.53

IN: Note down pIC50 recorded for CC(C)C[C@H](N)C(=O)N=[S@](N)(=O)c1cc(Cl)sc1Cl [ANASIA-134-1]
OUT: 5.29

IN: Note down pIC50 recorded for CC(C)C[C@H](N)C(=O)N=[S@](N)(=O)c1cccc(Cl)c1F.Cl [ANASIA-001-1]
OUT: 6.27

IN: Note down pIC50 recorded for CC(C)C[C@H](N)C(=O)N=[S@](N)(=O)c1ccc(Cl)c(Cl)c1 [ANASIA-042-1]
OUT: 5.95

IN: Note down pIC50 recorded for CC(C)C[C@H](N)C(=O)N=[S@](N)(=O)c1cccc(OC(F)F)c1.Cl [ANASIA-088-1]
OUT: 7.12

IN: Note down pIC50 recorded for Cc1sccc1[S@@](N)(=O)=NC(=O)[C@@H](N)CC(C)C.Cl [ANASIA-091-1]
OUT: 6.07

IN: Note down pIC50 recorded for CC(C)C[C@H](N)C(=O)N=[S@](N)(=O)c1cc(F)ccc1F.Cl [ANASIA-024-1]
OUT: 6.85

IN: Note down pIC50 recorded for CC(C)C[C@H](N)C(=O)N=[S@](N)(=O)c1cscc1-c1ccccc1 [ANASIA-130-1]
OUT: 6.49

IN: Note down pIC50 recorded for Cc1ncc([S@@](N)(=O)=NC(=O)[C@@H](N)CC(C)C)s1 [ANASIA-137-1]
OUT: 5.57

----------
biological target: Leucyl-tRNA synthetase (LeuRS) (Escherichia coli (strain K12), UniProt P07813); test: Leucyl-tRNA synthetase enzyme inhibition (AMP-Glo; single point % inhibition at 100 μM and IC50); format: biochemical
Sequence (P07813 whole entry, looked up): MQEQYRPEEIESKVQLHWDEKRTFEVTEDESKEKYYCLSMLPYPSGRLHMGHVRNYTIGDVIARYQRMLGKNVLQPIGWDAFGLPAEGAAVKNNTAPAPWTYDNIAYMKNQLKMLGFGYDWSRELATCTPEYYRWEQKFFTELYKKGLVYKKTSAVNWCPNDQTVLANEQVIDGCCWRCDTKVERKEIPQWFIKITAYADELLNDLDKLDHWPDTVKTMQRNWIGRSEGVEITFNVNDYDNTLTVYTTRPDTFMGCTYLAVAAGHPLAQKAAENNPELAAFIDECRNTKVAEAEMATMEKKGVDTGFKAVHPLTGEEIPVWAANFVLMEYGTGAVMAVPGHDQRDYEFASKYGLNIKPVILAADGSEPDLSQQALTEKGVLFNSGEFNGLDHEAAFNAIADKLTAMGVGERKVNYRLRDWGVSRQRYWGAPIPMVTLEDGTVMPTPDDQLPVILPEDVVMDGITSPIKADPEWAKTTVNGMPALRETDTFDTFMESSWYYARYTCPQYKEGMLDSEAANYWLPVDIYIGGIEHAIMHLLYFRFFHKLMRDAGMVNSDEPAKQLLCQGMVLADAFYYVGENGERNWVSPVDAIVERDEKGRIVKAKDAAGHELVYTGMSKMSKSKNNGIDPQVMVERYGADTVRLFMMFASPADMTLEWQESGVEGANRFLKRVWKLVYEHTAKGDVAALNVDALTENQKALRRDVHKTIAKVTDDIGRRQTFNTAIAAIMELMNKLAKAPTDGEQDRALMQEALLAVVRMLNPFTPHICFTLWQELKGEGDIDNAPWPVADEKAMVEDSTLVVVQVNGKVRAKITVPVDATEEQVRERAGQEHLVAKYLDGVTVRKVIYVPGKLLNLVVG
Field 'label' (enum: class 1 / class 0). Set to class 1 when IC50 is strictly under 300 nM; else class 0.

{"columns": ["compound", "discrete.label"],
 "data": [
  ["Cc1cccc([S@@](N)(=O)=NC(=O)[C@@H](N)CC(C)C)c1", "class 0"],
  ["CCc1csc([S@@](N)(=O)=NC(=O)[C@@H](N)CC(C)C)c1", "class 1"],
  ["Cc1cc([S@@](N)(=O)=NC(=O)[C@@H](N)CC(C)C)cs1.Cl", "class 1"],
  ["CC(C)C[C@H](N)C(=O)N=[S@](N)(=O)c1cccc(Oc2ccc(Cl)cc2)c1.Cl", "class 1"],
  ["Cc1cscc1[S@@](N)(=O)=NC(=O)[C@@H](N)CC(C)C.Cl", "class 0"]
]}

Field: next compound
IN: Consider CC(C)C[C@H](N)C(=O)N=[S@](N)(=O)c1csc(C#N)c1 . Does its IC50 lie strictly below 300 nM?
OUT: class 0

----------
Biological target: Leucyl-tRNA synthetase (LeuRS) (Escherichia coli (strain K12), UniProt P07813)
Test: Leucyl-tRNA synthetase enzyme inhibition (AMP-Glo; single point % inhibition at 100 μM and IC50)
Type: biochemical
Conditions: E. coli LeuRS; read-out: Enzyme Inhibition - IC50, E. coli LeuRS
Procedure: Study 1—Enzyme Inhibition The aminoacylation reaction catalyzed by aminoacyl-tRNA synthetases (aaRS) takes place in two steps. […] The activity of the pathogenic aaRSs was monitored by measuring AMP production using the commercial kit AMP-Glo (Promega, Madison, USA). […] Using the same enzymatic assay in a 384-well plate format, ten point concentration response curves were generated for each compound using a top concentration of 10 μM. […] The IC50 was calculated based on non-linear regression analysis.
Where a name gives a salt, the structure may show the parent alone.
Field 'label' (enum: Satisfied / Not satisfied). Set to Satisfied when IC50 is strictly under 5 µM; else Not satisfied.

{"columns": ["compound", "discrete.label"],
 "data": [
  ["CC(C)C[C@H](N)C(=O)N=S(N)(=O)c1sccc1Cl (some centres unmarked)", "Satisfied"]
]}

IN: Consider CC(C)C[C@H](N)C(=O)N=S(N)(=O)c1sccc1-c1ccccc1 (some centres unmarked) . Does its IC50 lie strictly below 5 µM?
OUT: Satisfied

IN: Consider Cc1ncc([S@](N)(=O)=NC(=O)[C@@H](N)CC(C)C)s1 . Does its IC50 lie strictly below 5 µM?
OUT: Not satisfied

IN: Consider CC(C)C[C@H](N)C(=O)N=[S@@](N)(=O)c1cc(Cl)cs1 . Does its IC50 lie strictly below 5 µM?
OUT: Satisfied

IN: Consider CC(C)C[C@H](N)C(=O)N=S(N)(=O)c1ccsc1C(N)=O (some centres unmarked) [ANASIA-093, hydrochloride] . Does its IC50 lie strictly below 5 µM?
OUT: Satisfied

----------
system: bacteria (ATCC reference strains); assay: Antibacterial activity, MIC by broth micro-dilution (CLSI); conditions: Escherichia coli, BAA2469, read-out: Antibacterial Activity (MIC), G = E. coli BAA-2469
value.kind: log10 MIC (log10 of the value in µg/mL)
Quick note: numbers are log10 of MIC, with µg/mL as the unit.

The following molecules have reported results that may help.
{"columns": ["molecule", "system.tested", "log10 MIC"],
 "data": [
  ["CC(C)C[C@H](N)C(=O)N=S(N)(=O)c1csc2ccsc12 (stereo partly drawn)", "bacteria (ATCC reference strains)", 0.60],
  ["CC(C)C[C@H](N)C(=O)N=S(N)(=O)c1csc(F)c1 (stereo partly drawn)", "bacteria (ATCC reference strains)", 1.20],
  ["CC(C)C[C@H](N)C(=O)N=[S@](N)(=O)c1cc(F)cs1", "bacteria (ATCC reference strains)", 0.90],
  ["COc1ccc([S@@](N)(=O)=NC(=O)[C@@H](N)CC(C)C)s1.Cl", "bacteria (ATCC reference strains)", 1.51]
]}

IN: Note down log10 MIC recorded for Cc1nc([S@@](N)(=O)=NC(=O)[C@@H](N)CC(C)C)cs1.Cl
OUT: 1.81

IN: Note down log10 MIC recorded for CCc1csc([S@@](N)(=O)=NC(=O)[C@@H](N)CC(C)C)c1
OUT: 0.90

IN: Note down log10 MIC recorded for CC(C)C[C@H](N)C(=O)N=[S@](N)(=O)c1cc(Cl)cs1.Cl
OUT: 0.20

IN: Note down log10 MIC recorded for Cc1csc([S@@](N)(=O)=NC(=O)[C@@H](N)CC(C)C)c1C.Cl
OUT: 1.20

IN: Note down log10 MIC recorded for Cc1csc([S@@](N)(=O)=NC(=O)[C@@H](N)CC(C)C)c1.Cl
OUT: 0.30

----------
target: Valyl-tRNA synthetase (ValRS) (Escherichia coli (strain K12)); assay: Valyl-tRNA synthetase enzyme inhibition (AMP-Glo; single point % inhibition at 100 μM and IC50); assay type: biochemical; details: E. coli ValRS; read-out: Enzyme Inhibition - IC50, E. coli ValRS
Sequence (P07118 whole entry): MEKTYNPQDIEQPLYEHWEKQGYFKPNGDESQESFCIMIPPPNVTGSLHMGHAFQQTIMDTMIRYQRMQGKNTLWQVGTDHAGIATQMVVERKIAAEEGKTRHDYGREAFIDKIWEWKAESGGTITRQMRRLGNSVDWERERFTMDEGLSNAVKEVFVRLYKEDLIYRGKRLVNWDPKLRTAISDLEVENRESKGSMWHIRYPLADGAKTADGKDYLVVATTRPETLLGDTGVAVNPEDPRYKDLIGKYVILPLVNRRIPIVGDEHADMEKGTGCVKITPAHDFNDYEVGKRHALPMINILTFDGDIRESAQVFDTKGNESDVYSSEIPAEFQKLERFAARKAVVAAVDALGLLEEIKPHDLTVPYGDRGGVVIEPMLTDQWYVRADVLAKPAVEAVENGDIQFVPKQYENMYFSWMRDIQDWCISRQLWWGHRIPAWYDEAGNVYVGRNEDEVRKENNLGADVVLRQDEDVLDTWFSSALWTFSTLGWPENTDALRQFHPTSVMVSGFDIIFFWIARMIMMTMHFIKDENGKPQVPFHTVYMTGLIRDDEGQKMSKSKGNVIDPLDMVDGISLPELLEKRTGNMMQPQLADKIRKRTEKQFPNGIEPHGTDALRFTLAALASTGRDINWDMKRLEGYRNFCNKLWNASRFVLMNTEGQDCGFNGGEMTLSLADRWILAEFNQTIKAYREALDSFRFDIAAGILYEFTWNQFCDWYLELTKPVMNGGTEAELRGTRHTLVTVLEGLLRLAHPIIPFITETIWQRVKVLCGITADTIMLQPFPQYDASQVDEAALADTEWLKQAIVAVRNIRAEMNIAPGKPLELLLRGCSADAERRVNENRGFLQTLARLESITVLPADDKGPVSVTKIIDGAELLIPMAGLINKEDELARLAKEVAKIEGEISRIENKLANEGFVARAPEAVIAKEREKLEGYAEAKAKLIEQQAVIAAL
value.kind: IC50 (µM)
Reply with just the number (in µM).

IN: Note down IC50 recorded for CC(C)[C@H](N)C(=O)N=[S@](N)(=O)c1cccc(OC(F)F)c1 [ANASIA-117-1]
OUT: 47.9
